The measured values listed here are drawn from PubChem BioAssay (NCATS).

# Assay Info: qHTS of pediatric cancer cell lines to identify multiple opportunities for drug repurposing: Confirmatory screen for Rh18 cells (AID 1347125);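 further: cells exposed to compound for 48 h; nearly all actives have a fitted effect of over 55% in size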
# Run Parameters: Rh18 rhabdomyosarcoma cells, viability; series mostly up to 45.9 µM
Records with an inconclusive call do not appear. The source made the active and inactive calls. The call rests on the fitted dose curve; in most records, active means well fitted cell-killing curve with a large enough effect; inconclusive means small, poorly fitted or top-dose-only effect, or effect the other way; inactive means flat fitted curve, though single readings scatter.
Field 'call' accepts class 1 (active), class 0 (inactive)

Record excerpt, results attached:
compound=C[n+]1cc2c3c(ccc2c2ccc4cc5c(cc4c21)OCO5)OCO3 class="class 1"
compound=Nc1nc(N)c2nc(-c3ccccc3)c(N)nc2n1 class="class 0"
compound=C[C@]12C=CC(=O)C=C1CC[C@H]1[C@@H]3C[C@@H](O)[C@](O)(C(=O)CO)[C@@]3(C)C[C@H](O)[C@@]12F class="class 1"

// switching to the query compound
Query: What outcome does the record of this test show for C[C@]12CC[C@@H]3c4ccc(O)cc4C[C@@H](CCCCCCCCCS(=O)CCCC(F)(F)C(F)(F)F)[C@H]3[C@@H]1CC[C@@H]2O (some centres undefined) ?
Result: class 0
